target: mouse FL5.12 cells transfected with Bcl-xL (Homo sapiens, UniProt Q07817); experiment: FL5.12 cellular assay (cell viability, CellTiter-Glo); conditions: IL-3-depleted, 3% FBS assay media, 24 hours; read-out: FL5.12 Bcl-xL, −IL3, EC50
Sequence (Q07817 whole entry, change not shown): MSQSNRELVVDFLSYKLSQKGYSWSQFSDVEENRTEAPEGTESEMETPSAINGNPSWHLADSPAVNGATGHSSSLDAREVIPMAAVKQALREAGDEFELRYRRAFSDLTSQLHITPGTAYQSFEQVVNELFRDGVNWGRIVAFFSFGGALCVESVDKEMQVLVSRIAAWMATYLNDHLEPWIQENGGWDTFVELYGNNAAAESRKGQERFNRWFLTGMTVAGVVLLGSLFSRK
Readout: EC50

Use the examples below as a reference point.
Compound	EC50
O=C(Nc1nc2ccccc2s1)c1cccc2c1CN(c1ccc(-c3cnn(CC45CC6CC(C4)CC(N4CCS(=O)(=O)CC4)(C6)C5)c3)c(C(=O)O)n1)CC2 [Example 33]	> 1000 nM
COC12CC3CC(CC(Cn4ncc(-c5ccc(N6CCc7cccc(C(=O)Nc8nc9ccccc9s8)c7C6)nc5C(=O)NS(C)(=O)=O)c4C)(C3)C1)C2 [Example 37]	3 nM

Moving on to another compound below.
Challenge: Value lookup for EC50; key = Cc1c(-c2ccc(N3Cc4c(C(=O)Nc5nc6ccccc6s5)cccc4C(C)(C)C3)nc2C(=O)O)cnn1CC12CC3CC(CC(C3)C1)C2 [Example 14]
Response given: < 1 nM
